experiment: binders of probe aFST on microarray, primary screen, stem cell growth factor project, biochemical, small-molecule microarray, fluorescence 635/667 (AID 1086); conditions: higher = more signal;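 also: score merges 667 nm fluorescence with signal-to-noise of each printed compound spot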
Binning of composite z-score into classes: lower level (below -0.3), middle level (-0.3 to below 0.4), upper level (0.4 or more)

Data request: Please indicate the class for [N-]=[N+]=NCc1ccccc1C[C@@]1(C(N)=O)N=C(c2ccc(OCCCO)cc2)O[C@@H]1c1ccccc1CN=[N+]=[N-] based on its composite z-score.
Data returned: upper level

Data request: Please indicate the class for CN(C)CCCN1C(=O)[C@@]2(c3ccc([N+](=O)[O-])cc3)CC(=O)N(CC34CC5CC(CC(C5)C3)C4)[C@@H]2c2ccc(CO)cc21 based on its composite z-score.
Data returned: middle level

Data request: Please indicate the class for O=C(O)[C@]1(Cc2ccccc2)N=C(c2ccc(OCCCO)cc2)O[C@@H]1c1ccccc1 based on its composite z-score.
Data returned: middle level

Data request: Please indicate the class for C=CCN1Cc2ccccc2C[C@@]2(N=C(c3ccc(OCCCO)cc3)O[C@H]2c2ccccc2)C1=O based on its composite z-score.
Data returned: middle level

Data request: Please indicate the class for O=C1OC[C@@H](c2ccccc2)N2CC(/C=C/c3ccccc3)=CC12 (some centres undefined) based on its composite z-score.
Data returned: lower level

Data request: Please indicate the class for COC(=O)C(CC#Cc1ccc2c(c1)[C@]1(C(=O)N2)[C@H](C(=O)O)[C@H]2C(=O)O[C@H](c3ccccc3)[C@H](c3ccccc3)N2[C@@H]1c1ccccc1OCCO)C(=O)OC based on its composite z-score.
Data returned: upper level

Data request: Please indicate the class for C=C(/C(=C/C[C@@H](OC(=O)c1ccncc1)c1ccc(OCCO)cc1)c1cc(C(=O)OC)ccc1OC)C(C)C based on its composite z-score.
Data returned: middle level

Data request: Please indicate the class for Cc1ccc(S[C@]2(C(=O)NCC(C)C)CC(=O)N(Cc3ccccc3Cl)[C@@H]2c2ccc(CO)cc2I)cc1 based on its composite z-score.
Data returned: lower level

Data request: Please indicate the class for COCCOC(=O)N1C(=O)[C@@]2(c3cc(C#CCC(C(=O)OC)C(=O)OC)ccc31)[C@H](c1ccc(OCCO)cc1)N1[C@H](c3ccccc3)[C@H](c3ccccc3)OC(=O)[C@H]1[C@@H]2C(=O)N1CCN(c2ncccn2)CC1 based on its composite z-score.
Data returned: upper level

Data request: Please indicate the class for C=C(CCCC)C(=O)CC[C@@H](OC(=O)c1ccccc1-c1ccccc1C(=O)O)c1cccc(OCCO)c1 based on its composite z-score.
Data returned: lower level

Data request: Please indicate the class for CC1CC/C=C\[C@H]2OC34C=CCN(CCN5CCOCC5)C(=O)[C@H]3N(CCO)C(=O)[C@@H]4C2C(=O)O1 (some centres undefined) based on its composite z-score.
Data returned: lower level

Data request: Please indicate the class for C=C(CCCC)/C(=C/C[C@@H](OC(C)=O)c1ccc(CO)o1)c1cc(C(=O)OC)ccc1OC based on its composite z-score.
Data returned: upper level

Data request: Please indicate the class for NC(=O)NCC#Cc1ccc2c(c1)[C@]1(C(=O)N2)[C@H](c2ccc(O)cc2)N2[C@H](c3ccccc3)[C@H](c3ccccc3)OC(=O)[C@H]2[C@@H]1C(=O)Nc1nc2ccccc2s1 based on its composite z-score.
Data returned: middle level
